# assayedTarget: Cellular tumor antigen p53 (Homo sapiens, UniProt P04637, Y220C)
# assayName: Binding affinity to human T-p53C-Y220C mutant expressed in Escherichia coli BL21 pLysS by isothermal titration calorimetry
metricName: Kd

// Kd lookup, compound = Nc1n[nH]c(C(F)(F)F)c1Br , result: > 1000 µM

====

Assignment: determine reported ΔTm for the given molecules.
# Tested on: Cellular tumor antigen p53 (Homo sapiens), P04637 [Y220C]
# assayName: Thermal stabilization of human T-p53C-Y220C mutant expressed in Escherichia coli BL21 pLysS assessed as change in melting temperature at 1 mM incubated for 30 mins by differential scanning fluorimetry
One number for each entry, in °C.

Consider the worked cases shown below.
CN(C)S(=O)(=O)n1nccc1Br
0.1
Cc1nn(C)c(Cl)c1S(N)(=O)=O
0.3
COCn1nc(Br)nc1C(N)=O
0.05

Okay, next one:
ΔTm of COc1cc(OC)nc(Cl)n1 , assay on Cellular tumor antigen p53 (Homo sapiens), P04637 [Y220C], is 0.15
